Data provenance: ChEMBL document CHEMBL1125894

# Test system: Escherichia coli
# Test Protocol: Concentration required for 90% inhibition against 60 kDa penicillin-binding protein 3 binding using [14C]-Pen G as the radioligand.
Metric: Concentration (µg/mL)
A number alone suffices; assume µg/mL.

Worked examples follow.
>  <Compound>
C[N+]1(CC2=C(C(=O)[O-])N3C(=O)[C@@H](NC(=O)COc4ccccc4)[C@H]3SC2)CCN(c2c(F)cc3c(=O)c(C(=O)O)cn(CCF)c3c2F)CC1

>  <Metric>
Concentration

>  <Measurement Units>
µg/mL

>  <Numeric Value>
2

$$$$
>  <Compound>
CO/N=C(\C(=O)N[C@@H]1C(=O)N2C(C(=O)[O-])=C(C[N+]3(C)CCN(c4c(F)cc5c(=O)c(C(=O)O)cn(CCF)c5c4F)CC3)CS[C@H]12)c1csc(N)n1

>  <Metric>
Concentration

>  <Measurement Units>
µg/mL

>  <Numeric Value>
0.1

$$$$
>  <Compound>
CC(C)(O/N=C(\C(=O)N[C@@H]1C(=O)N2C(C(=O)[O-])=C(C[N+]3(C)CCN(c4c(F)cc5c(=O)c(C(=O)O)cn(CCF)c5c4F)CC3)CS[C@H]12)c1csc(N)n1)C(=O)O

>  <Metric>
Concentration

>  <Measurement Units>
µg/mL

>  <Numeric Value>
0.1

$$$$
>  <Compound>
CO/N=C(\C(=O)N[C@@H]1C(=O)N2C(C(=O)O)=C(COC(C)=O)CS[C@H]12)c1csc(N)n1 [CEFOTAXIME]

>  <Metric>
Concentration

>  <Measurement Units>
µg/mL

>  <Numeric Value>
0.1

$$$$

In: Looking for the measured Concentration of `CO/N=C(\C(=O)N[C@@H]1C(=O)N2C(C(=O)O)=C(COC(=O)c3cn(CCF)c4c(F)c(N5CCN(C)CC5)c(F)cc4c3=O)CS[C@H]12)c1csc(N)n1` , can you help?
Out: 0.1

* * *

Overview of reported Concentration across a group of compounds:
# Study System: Penicillin-binding protein 1A (Escherichia coli K-12) (UniProt P02918)
# Sequence (P02918 whole entry): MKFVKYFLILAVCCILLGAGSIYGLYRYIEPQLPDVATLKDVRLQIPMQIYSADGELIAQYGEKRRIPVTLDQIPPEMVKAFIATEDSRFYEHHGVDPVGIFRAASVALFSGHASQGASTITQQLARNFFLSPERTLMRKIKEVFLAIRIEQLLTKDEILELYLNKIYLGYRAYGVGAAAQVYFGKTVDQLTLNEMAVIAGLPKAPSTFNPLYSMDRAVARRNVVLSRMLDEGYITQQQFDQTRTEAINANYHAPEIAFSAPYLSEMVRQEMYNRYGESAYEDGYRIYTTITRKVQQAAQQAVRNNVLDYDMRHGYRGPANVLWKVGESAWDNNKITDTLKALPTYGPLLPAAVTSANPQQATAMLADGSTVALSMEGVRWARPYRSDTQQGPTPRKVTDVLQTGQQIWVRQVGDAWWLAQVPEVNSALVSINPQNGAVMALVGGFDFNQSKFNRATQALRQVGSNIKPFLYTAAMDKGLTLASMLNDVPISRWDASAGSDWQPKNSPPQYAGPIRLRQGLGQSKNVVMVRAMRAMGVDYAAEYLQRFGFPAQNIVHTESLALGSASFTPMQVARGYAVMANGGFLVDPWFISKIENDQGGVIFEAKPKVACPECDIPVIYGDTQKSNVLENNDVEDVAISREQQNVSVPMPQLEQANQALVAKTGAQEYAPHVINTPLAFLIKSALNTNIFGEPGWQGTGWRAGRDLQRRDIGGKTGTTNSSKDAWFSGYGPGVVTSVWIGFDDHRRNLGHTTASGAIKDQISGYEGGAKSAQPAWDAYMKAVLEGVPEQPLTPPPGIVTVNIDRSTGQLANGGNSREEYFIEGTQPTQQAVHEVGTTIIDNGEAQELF
# Test Protocol: Concentration required for 90% inhibition against 90 kDa penicillin-binding protein 1a binding using [14C]-Pen G as the radioligand.
A number alone suffices; assume µg/mL.

>  <Compound>
C[N+]1(CC2=C(C(=O)[O-])N3C(=O)[C@@H](NC(=O)COc4ccccc4)[C@H]3SC2)CCN(c2c(F)cc3c(=O)c(C(=O)O)cn(CCF)c3c2F)CC1

>  <Measurement Units>
µg/mL

>  <Concentration>
10

$$$$
>  <Compound>
CC(C)(O/N=C(\C(=O)N[C@@H]1C(=O)N2C(C(=O)[O-])=C(C[N+]3(C)CCN(c4c(F)cc5c(=O)c(C(=O)O)cn(CCF)c5c4F)CC3)CS[C@H]12)c1csc(N)n1)C(=O)O

>  <Measurement Units>
µg/mL

>  <Concentration>
2

$$$$
>  <Compound>
CO/N=C(\C(=O)N[C@@H]1C(=O)N2C(C(=O)O)=C(COC(C)=O)CS[C@H]12)c1csc(N)n1 [CEFOTAXIME]

>  <Measurement Units>
µg/mL

>  <Concentration>
0.1

$$$$

Kindly consider the entry below.
In: Looking for the measured Concentration of `CO/N=C(\C(=O)N[C@@H]1C(=O)N2C(C(=O)O)=C(COC(=O)c3cn(CCF)c4c(F)c(N5CCN(C)CC5)c(F)cc4c3=O)CS[C@H]12)c1csc(N)n1` , can you help?
Out: 0.1

* * *

Overview of reported Concentration across a group of molecules:
# Study System: Penicillin-binding protein 1B (Escherichia coli K-12) (UniProt P02919)
# Sequence (P02919 whole entry): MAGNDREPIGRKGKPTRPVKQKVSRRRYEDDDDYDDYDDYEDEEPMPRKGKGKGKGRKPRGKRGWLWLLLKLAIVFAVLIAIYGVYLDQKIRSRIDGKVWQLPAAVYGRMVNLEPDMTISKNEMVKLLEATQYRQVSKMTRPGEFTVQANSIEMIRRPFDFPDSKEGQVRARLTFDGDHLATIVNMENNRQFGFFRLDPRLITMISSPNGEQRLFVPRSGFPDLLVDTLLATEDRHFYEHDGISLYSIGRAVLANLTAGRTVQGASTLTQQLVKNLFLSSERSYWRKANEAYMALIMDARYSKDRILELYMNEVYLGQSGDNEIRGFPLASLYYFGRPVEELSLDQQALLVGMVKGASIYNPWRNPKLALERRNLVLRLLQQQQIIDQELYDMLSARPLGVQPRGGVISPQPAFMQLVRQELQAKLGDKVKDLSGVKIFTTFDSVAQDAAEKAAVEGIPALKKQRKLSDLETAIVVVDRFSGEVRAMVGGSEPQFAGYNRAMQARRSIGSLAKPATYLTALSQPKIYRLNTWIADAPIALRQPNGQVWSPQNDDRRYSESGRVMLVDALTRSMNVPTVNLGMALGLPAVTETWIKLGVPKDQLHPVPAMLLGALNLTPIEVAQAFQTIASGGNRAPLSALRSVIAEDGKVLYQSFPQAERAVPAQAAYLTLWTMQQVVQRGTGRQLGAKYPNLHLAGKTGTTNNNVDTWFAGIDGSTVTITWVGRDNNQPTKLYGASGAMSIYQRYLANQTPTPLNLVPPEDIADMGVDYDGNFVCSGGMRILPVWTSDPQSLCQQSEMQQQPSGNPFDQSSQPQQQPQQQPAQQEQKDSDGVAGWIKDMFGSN
# Test Protocol: Concentration required for 90% inhibition against 90 kDa penicillin-binding protein 1b binding using [14C]-Pen G as the radioligand.
A number alone suffices; assume µg/mL.

Worked examples follow.
>  <Smiles>
C[N+]1(CC2=C(C(=O)[O-])N3C(=O)[C@@H](NC(=O)COc4ccccc4)[C@H]3SC2)CCN(c2c(F)cc3c(=O)c(C(=O)O)cn(CCF)c3c2F)CC1

>  <Concentration / µg/mL>
100

$$$$
>  <Smiles>
CC(C)(O/N=C(\C(=O)N[C@@H]1C(=O)N2C(C(=O)[O-])=C(C[N+]3(C)CCN(c4c(F)cc5c(=O)c(C(=O)O)cn(CCF)c5c4F)CC3)CS[C@H]12)c1csc(N)n1)C(=O)O

>  <Concentration / µg/mL>
30

$$$$
>  <Smiles>
CO/N=C(\C(=O)N[C@@H]1C(=O)N2C(C(=O)O)=C(COC(=O)c3cn(CCF)c4c(F)c(N5CCN(C)CC5)c(F)cc4c3=O)CS[C@H]12)c1csc(N)n1

>  <Concentration / µg/mL>
2

$$$$

Kindly consider the entry below.
In: Looking for the measured Concentration of `CO/N=C(\C(=O)N[C@@H]1C(=O)N2C(C(=O)O)=C(COC(C)=O)CS[C@H]12)c1csc(N)n1` , can you help?
Out: 0.5

* * *

# Test system: Staphylococcus aureus
# Test Protocol: In vitro antibacterial activity against Staphylococcus aureus 95(MR)
# Format: functional
Overview of reported MIC across a group of compounds:
A number alone suffices; assume µg/mL.

In: Looking for the measured MIC of `CC(C)(O/N=C(\C(=O)N[C@@H]1C(=O)N2C(C(=O)[O-])=C(C[N+]3(C)CCN(c4c(F)cc5c(=O)c(C(=O)O)cn(CCF)c5c4F)CC3)CS[C@H]12)c1csc(N)n1)C(=O)O` , can you help?
Out: 8

In: Note, next up: `CO/N=C(\C(=O)N[C@@H]1C(=O)N2C(C(=O)O)=C(COC(=O)c3cn(CCF)c4c(F)c(N5CCN(C)CC5)c(F)cc4c3=O)CS[C@H]12)c1csc(N)n1`
Out: 1

In: Note, next up: `CCn1cc(C(=O)O)c(=O)c2cc(F)c(N3CC[N+](C)(CC4=C(C(=O)[O-])N5C(=O)[C@@H](NC(=O)/C(=N\OC)c6csc(N)n6)[C@H]5SC4)CC3)cc21`
Out: 4

In: Note, next up: `C[N+]1(CC2=C(C(=O)[O-])N3C(=O)[C@@H](NC=O)[C@H]3SC2)CCN(c2c(F)cc3c(=O)c(C(=O)O)cn(CCF)c3c2F)CC1`
Out: 1

In: Note, next up: CN1CCN(c2c(F)cc3c(=O)c(C(=O)O)cn(CCF)c3c2F)CC1 [FLEROXACIN]
Out: 0.25

In: Note, next up: CO/N=C(\C(=O)N[C@@H]1C(=O)N2C(C(=O)O)=C(COC(C)=O)CS[C@H]12)c1csc(N)n1 [CEFOTAXIME]
Out: 128

* * *

# Tested on: Escherichia coli
# Test Protocol: In vivo activity in murine against Escherichia coli 257 infection after sc administration.
# Assay type: functional
# Conditions: Escherichia coli, sc; read-out: ED50
Overview of reported ED50 across a group of compounds:
A number alone suffices; assume mg/kg.

>  <Smiles>
CC(C)(O/N=C(\C(=O)N[C@@H]1C(=O)N2C(C(=O)[O-])=C(C[N+]3(C)CCN(c4c(F)cc5c(=O)c(C(=O)O)cn(CCF)c5c4F)CC3)CS[C@H]12)c1csc(N)n1)C(=O)O

>  <ED50 [mg/kg]>
0.28

$$$$
>  <Smiles>
CN1CCN(c2c(F)cc3c(=O)c(C(=O)O)cn(CCF)c3c2F)CC1

>  <ED50 [mg/kg]>
0.25

$$$$

Kindly consider the entry below.
In: Looking for the measured ED50 of `CO/N=C(\C(=O)N[C@@H]1C(=O)N2C(C(=O)O)=C(COC(C)=O)CS[C@H]12)c1csc(N)n1` , can you help?
Out: 0.37

* * *

# System: Staphylococcus aureus
# Test Protocol: In vitro antibacterial activity against Staphylococcus aureus 95(MR)
# Assay type: functional
Metric: MIC

Worked examples follow.
>  <Smiles>
C[N+]1(CC2=C(C(=O)[O-])N3C(=O)[C@@H](NC(=O)COc4ccccc4)[C@H]3SC2)CCN(c2c(F)cc3c(=O)c(C(=O)O)cn(CCF)c3c2F)CC1

>  <MIC>
1 µg/mL

$$$$
>  <Smiles>
C[N+]1(CC2=C(C(=O)[O-])N3C(=O)[C@@H](NC(=O)COc4ccccc4)[C@H]3SC2)CCN(c2ccccc2)CC1

>  <MIC>
128 µg/mL

$$$$

In: Looking for the measured MIC of `CO/N=C(\C(=O)N[C@@H]1C(=O)N2C(C(=O)[O-])=C(C[N+]3(C)CCN(c4c(F)cc5c(=O)c(C(=O)O)cn(CCF)c5c4F)CC3)CS[C@H]12)c1csc(N)n1` , can you help?
Out: 4 µg/mL

* * *

Overview of reported MIC across a group of compounds:
# Tested on: Escherichia coli
# Test Protocol: In vitro antibacterial activity against Escherichia coli 257
# Format: functional
A number alone suffices; assume mg/L.

>  <Smiles>
CN1CCN(c2c(F)cc3c(=O)c(C(=O)O)cn(CCF)c3c2F)CC1

>  <MIC (mg/L)>
0.031

$$$$

In: Looking for the measured MIC of `CO/N=C(\C(=O)N[C@@H]1C(=O)N2C(C(=O)O)=C(COC(C)=O)CS[C@H]12)c1csc(N)n1` , can you help?
Out: 0.031

In: Note, next up: `CO/N=C(\C(=O)N[C@@H]1C(=O)N2C(C(=O)O)=C(COC(=O)c3cn(CCF)c4c(F)c(N5CCN(C)CC5)c(F)cc4c3=O)CS[C@H]12)c1csc(N)n1`
Out: 0.063

In: Note, next up: `C[N+]1(CC2=C(C(=O)[O-])N3C(=O)[C@@H](NC(=O)COc4ccccc4)[C@H]3SC2)CCN(c2c(F)cc3c(=O)c(C(=O)O)cn(CCF)c3c2F)CC1`
Out: 0.5

In: Note, next up: `CCn1cc(C(=O)O)c(=O)c2cc(F)c(N3CC[N+](C)(CC4=C(C(=O)[O-])N5C(=O)[C@@H](NC(=O)/C(=N\OC)c6csc(N)n6)[C@H]5SC4)CC3)cc21`
Out: 0.5

In: Note, next up: `CO/N=C(\C(=O)N[C@@H]1C(=O)N2C(C(=O)[O-])=C(C[N+]3(C)CCN(c4c(F)cc5c(=O)c(C(=O)O)cn(CCF)c5c4F)CC3)CS[C@H]12)c1csc(N)n1`
Out: 0.125

In: Note, next up: `C[N+]1(CC2=C(C(=O)[O-])N3C(=O)[C@@H](NC(=O)COc4ccccc4)[C@H]3SC2)CCN(c2ccccc2)CC1`
Out: 32

In: Note, next up: `C[N+]1(CC2=C(C(=O)[O-])N3C(=O)[C@@H](NC=O)[C@H]3SC2)CCN(c2c(F)cc3c(=O)c(C(=O)O)cn(CCF)c3c2F)CC1`
Out: 2

In: Note, next up: `CC(C)(O/N=C(\C(=O)N[C@@H]1C(=O)N2C(C(=O)[O-])=C(C[N+]3(C)CCN(c4c(F)cc5c(=O)c(C(=O)O)cn(CCF)c5c4F)CC3)CS[C@H]12)c1csc(N)n1)C(=O)O`
Out: 0.25
